Data provenance is PubChem BioAssay (NCI).

Reported growth values for a set of compounds
# Test system: MCF7 breast
# assay_explanation: NCI-60 one-dose screen, 48 h (100 = growth as untreated, 0 = no growth, -100 = all killed)
# experimental_context: 10 µM
# Procedure: Growth inhibition of the MCF7 human tumor cell line is measured as a screen for anti-cancer activity. Cells are grown in 96 well plates and exposed to the test compound for 48 hours. Compounds are tested at a single concentration, which is 10^-5 M for most compounds. The reported endpoint is percent growth (GI% or GIPRCNT), where numbers from 0 - 100% represent growth inhibition, and numbers from -100% - 0 represent cell death. For example, a value of 40 represents 60% growth inhibition. […]
This is part of a sample that, as a whole, favours compounds with a hit. Of some 83,000 tested, about 20% had one in any assay.

{"columns": ["compound", "target_of_assay", "growth [%]"],
 "data": [
  ["O=S(=O)(NCCCNc1nccc(-c2c(-c3ccc(F)cc3)nc3sccn23)n1)c1ccc(F)cc1", "MCF7 breast", 32.8],
  ["CCOC(=O)N1C=CC2C=CC1C1C=CC=CC2N1C(=O)OCC (centres undefined)", "MCF7 breast", 76.8],
  ["CN(C)CCN1C(=O)c2cccc3cc(N)cc(c23)C1=O", "MCF7 breast", 7.96],
  ["CC1(C)CCC(=NNC(N)=S)CC1", "MCF7 breast", 99.4],
  ["COC(=O)C1(C)Cc2cc(OC(C)=O)c(OC(C)=O)cc2N1 (centres undefined)", "MCF7 breast", 51.7],
  ["O=C(C[n+]1ccccc1)c1ccc2ccccc2c1", "MCF7 breast", 98.1],
  ["COc1cc(Cl)cc(-c2nn(-c3cccc(NC(=O)Nc4ccc(Cl)c(C(F)(F)F)c4)c3)cc2-c2ccncc2)c1", "MCF7 breast", 2.57],
  ["CSc1cc(SC)ncn1", "MCF7 breast", 97.8],
  ["Nc1ncnc2[nH]c(=O)[nH]c12", "MCF7 breast", 100]
]}
